# System: K4 kissing-loop RNA reporter;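 further: bound reporter read as fluorescence of individual clusters on recovered sequencing chips by microscopy, with normalized cluster intensities fitted with a binding model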
# measurement_notes: apparent KD of K4 kissing-loop reporter; higher = weaker reporter binding
# assay_conditions: Eterna round: R107; input ligand: FMN 200 uM
readout: apparent KD of K4 kissing-loop reporter (nM)
Give bare numbers, in nM.

Sample records with apparent KD of K4 kissing-loop reporter:
- GGAUAGGACGGAGGAUAUGGGCUAGGCAAGAAUAACUUGUCUAGCAAAUCCAUGAGGAGUGAUGUUCCAGAAGGUUGUCCUAUCG [FmnBX 1 G10+U75]: 167
- GCCGUAGAUGGAAGGAGCGUGGUUAAUGUAAGUGAUGUUUACGAGGUCAACAAUUGACCGCCACAGGUAGGUCGCCAUCUACGGC: 60.4
- AAACUCAGUGAUGUUGAGUGGGAGCGGGAUACCAGAUCGCCCAUCAUCCCUUGGCAGCCCGAGCGUCAGAAUACAUUUCAUUUGC [theeternabot_sameState_KL_Theo_A_6]: 339

--- query ---
Exercise: Report apparent KD of K4 kissing-loop reporter, nothing else, for this sequence: GCUCAUCCGGCAGGAUAUAGGCAGGUAGAGUGAUGUUCGAACUGCAGUUAUCCAUCCUUCUACCUACUAGAAGGGCCGGAUGAGC
Key: 376
